Overview of reported TGI across a group of molecules:
System: HOP-62 NSCLC
Test: NCI tumour cell line growth inhibition, 48 h

Field TGI (entry C/C(=C\c1ccccc1)C(=O)NCc1ccc(C(=O)NCCc2ccccc2)cc1 ) reads 10.8 µM

Field TGI (entry COc1ccc2c(C3(c4cn(C)c5cc(OC)ccc45)C(=O)Nc4ccc(Cl)cc43)cn(C)c2c1 ) reads > 100 µM

Field TGI (entry CCCCCCCCCCCCc1ccc(S(=O)(=O)O)cc1.[Zn+2] ) reads > 100 µM

Field TGI (entry Cc1c(CCO)c(=O)n2c([nH]c3ccccc32)c1C#N ) reads > 100 µM

Field TGI (entry C(/Cc1ccc2c(c1)OCO2)=N\NC1=NCCN1 ) reads > 100 µM

Field TGI (entry O=c1c2c3c(sc2nc2n1N=C(c1ccc(Cl)cc1)CS2)CCCC3 ) reads > 100 µM

Field TGI (entry C=C1C(=O)O[C@H]2[C@H]1CC/C(COC(=O)CCSCCC(=O)OC/C1=C/CC[C@@]3(C)O[C@H]3[C@H]3OC(=O)C(=C)[C@@H]3CC1)=C\CC[C@@]1(C)O[C@@H]21 ) reads 7.94 µM

Field TGI (entry CN(C)c1nnnn1-c1c(N)n(C)c(=O)n(C)c1=O ) reads > 100 µM

---
Field TGI (entry O=c1oc2ccc([N+](=O)[O-])cc2c(Nc2ccc3c(c2)Sc2ccccc2O3)c1[N+](=O)[O-] ) reads 44.7 µM

###

System: M19-MEL melanoma
Assay: NCI tumour cell line growth inhibition, 48 h
Overview of reported TGI across a group of molecules:

Bench note, M19-MEL melanoma: entry COc1cc(CNc2cnc3cc(N)ccc3n2)cc(OC)c1OC , its TGI = > 100 µM

Bench note, M19-MEL melanoma: entry O=C1NC(=O)C(=Nc2cccc3c(=O)[nH][nH]c(=O)c23)C(c2nc3ccccc3s2)C1=O (stereo not drawn) , its TGI = > 100 µM

Bench note, M19-MEL melanoma: entry O=c1cc(-c2c[nH]c3ccccc23)[nH]c2cc3c(cc12)OCO3 , its TGI = > 100 µM

Bench note, M19-MEL melanoma: entry COP(=O)(OC)C(NC(=O)C(F)(F)F)(c1ccccc1)C(F)(F)F (stereo not drawn) , its TGI = > 100 µM

Bench note, M19-MEL melanoma: entry CN(C)c1nnnn1-c1c(N)n(C)c(=O)n(C)c1=O , its TGI = > 100 µM

---
Bench note, M19-MEL melanoma: entry C#CC[N+](C)(CC#C)CC#C , its TGI = > 100 µM

###

Tested on: HS 578T breast
Experiment: NCI tumour cell line growth inhibition, 48 h
Overview of reported TGI across a group of compounds:

Field TGI (entry c1ccc(CN[C@]23C4C5CC6C7C5C2C7[C@@](NCc2ccccc2)(C64)N3Cc2ccccc2)cc1 (some centres not stated) ) reads > 100 µM

Field TGI (entry ON(Cc1ccccc1)C(=S)c1ccccc1 ) reads > 100 µM

Field TGI (entry O=C(O)C1CCCCC1c1c2ccc(=O)c(O)c-2oc2c(O)c(O)ccc12 (configuration not stated) ) reads > 100 µM

Field TGI (entry COC(=O)C1OC2(CCCC3CC32)O[C@H]1C(=O)OC (some centres not stated) ) reads > 100 µM

Here is another compound to look at.
Field TGI (entry O=C1Nc2ccccc2Cn2c1cc1oc(-c3ccccc3)cc12 ) reads 44.3 µM
